- test target: human MR (hMR) (Homo sapiens)
- Construct: hMR(LBD) (G671-K894) and zfMR(LBD) (L668-K970) have been amplified by PCR; expressed in transfected cells
- Sequence (P08235 671-984 limits assumed): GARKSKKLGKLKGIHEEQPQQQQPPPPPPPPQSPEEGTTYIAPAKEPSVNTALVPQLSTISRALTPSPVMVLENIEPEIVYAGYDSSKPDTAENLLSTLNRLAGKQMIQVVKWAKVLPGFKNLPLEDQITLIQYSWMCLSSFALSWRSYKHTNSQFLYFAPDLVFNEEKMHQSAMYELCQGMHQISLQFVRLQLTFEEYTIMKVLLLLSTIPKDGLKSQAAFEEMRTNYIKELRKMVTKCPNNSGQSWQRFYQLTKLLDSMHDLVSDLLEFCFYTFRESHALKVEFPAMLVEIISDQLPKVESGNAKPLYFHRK
- protocol summary: UG5LN-GAL4-hMR luciferase reporter cell assay (agonism and antagonism tests)
- Assay type: cell-based
- run parameters: environmental chemicals at 10^−5 M; antagonism test; % of maximal luciferase activity induced by 10^−8 M aldosterone
Classify by measured % min act: condition met if it is equal to or exceeds 10%, condition not met if it is smaller.

Solved cases (3 shown):
molecule	test target	category
O=C1C2(Cl)C3(Cl)C4(Cl)C(Cl)(Cl)C5(Cl)C3(Cl)C1(Cl)C5(Cl)C24Cl (stereo not shown)	human MR (hMR) (Homo sapiens)	condition not met
ClC(Cl)=C(c1ccc(Cl)cc1)c1ccccc1Cl	human MR (hMR) (Homo sapiens)	condition not met
C=CC(C)(O)C(=O)Nc1cc(Cl)cc(Cl)c1 (stereo not shown)	human MR (hMR) (Homo sapiens)	condition met

q: Could you verify whether the entry `CC(C)(c1ccc(O)cc1)c1ccc(O)c(Cl)c1` shows % min act of no less than 10%?
a: condition met

q: Moving on to `CCCOCCN(C(=O)CCl)c1c(CC)cccc1CC`
a: condition met

q: Moving on to `Oc1ccc(C(c2ccc(O)cc2)C(Cl)(Cl)Cl)cc1`
a: condition met

Values were extracted from paper PMC12636382.
